Target Under Test: GDP-KRAS G12D mutant protein (Homo sapiens, UniProt P01116, G12D)
Construct: purchased Daegu Gyeongbuk Medical Innovation Foundation (DGMIF), made to order
Assay Summary: Differential scanning fluorimetry (DSF) binding affinity to GDP-KRAS G12D mutant protein
Condition Details: DSF thermal shift, 10 μM compound, 4 μg KRAS protein
Experimental: Test Example 1: Measurement of Binding Affinity to KRAS G12D Mutant Protein The binding affinities of the compounds according to one embodiment of the present application to the KRAS G12D mutant protein were evaluated using differential scanning fluorimetry (DSF). […] Protein-compound binding is determined by the difference in the melting temperature (Tm) of the protein in the presence of the compound compared to the Tm in the absence of the compound, expressed as ΔTm. […]
# reported GDP-KRAS G12D (ΔTmD, ° C.); entries follow
Dear colleague, please return just the value in °C, with no unit written.

// known answers, use as guide
Molecule | GDP-KRAS G12D (ΔTmD, ° C.) / °C
C#Cc1c(F)ccc2cc(O)cc(-c3c(F)c4nc(OC[C@@]56CC[C@@H](COC)N5CC(=C)C6)nc(N5C[C@H]6CC[C@@H](C5)N6)c4c4cn(C)nc34)c12 [Example 96] | 15.09
C#Cc1c(F)ccc2cc(O)cc(-c3cc4nc(OCC5(CN6C[C@@H]7C[C@H]6CO7)CC5)nc(N5C[C@H]6CC[C@@H](C5)N6)c4n4ccnc34)c12 [Example 12] | 9.61

-- ask Missing value: GDP-KRAS G12D (ΔTmD, ° C.), GDP-KRAS G12D mutant protein (Homo sapiens, UniProt P01116, G12D), entry C#Cc1c(F)ccc2cc(N)cc(-c3c(F)c4nc(OC[C@@]56CCCN5CC(=C(F)F)C6)nc(N5C[C@H]6CC[C@@H](C5)N6)c4c4cn(C)nc34)c12 [Example 99] . Fill in?
-- reply 11.13

-- ask So what GDP-KRAS G12D (ΔTmD, ° C.) did C#Cc1c(F)ccc2cc(O)cc(-c3c(F)c4nc(OC[C@@]56CCCN5CC(=C(F)F)C6)nc(N5CC6CCC(C5)N6)c4c4cn(C)nc34)c12 [Example 91] get with GDP-KRAS G12D mutant protein (Homo sapiens, UniProt P01116, G12D)?
-- reply −0.16

----------
Target Under Test: GppNHp-KRAS G12D mutant protein (Homo sapiens, UniProt P01116, G12D)
Construct: purchased Daegu Gyeongbuk Medical Innovation Foundation (DGMIF), made to order
Assay Summary: Differential scanning fluorimetry (DSF) binding affinity to GppNHp-KRAS G12D mutant protein
Condition Details: DSF thermal shift, 10 μM compound, 4 μg KRAS protein, 50 mM HEPES (pH 7.5)
Metric: GppNHp-KRAS G12D (ΔTmD, ° C.)
Reply with the number, then its unit.

Solved entries:
Line Notation | GppNHp-KRAS G12D (ΔTmD, ° C.)
Cn1cc2c(n1)c(-c1cc(O)cc3ccc(F)c(F)c13)cc1nc(OC[C@@]34CCCN3C[C@H](F)C4)nc(N3C[C@H]4CC[C@@H](C3)N4)c12 | 3.38 °C
Nc1c(F)c(F)c(F)c(-c2cc3nc(OC[C@@]45CCCN4C[C@H](F)C5)nc(N4C[C@H]5CC[C@@H](C4)N5)c3n3ccnc23)c1F | −0.61 °C
C#Cc1c(F)ccc2cc(N)cc(-c3cc4nc(OC[C@@]56CCCN5C[C@H](F)C6)nc(N5C[C@H]6CC[C@@H](C5)N6)c4c4cn(C)nc34)c12 | 4.88 °C
Nc1nc2c(-c3cc4nc(OC[C@@]56CCCN5C[C@H](F)C6)nc(N5C[C@H]6CC[C@@H](C5)N6)c4n4ccnc34)ccc(F)c2s1 | −0.17 °C

Then this compound:
-- ask Can you share its GppNHp-KRAS G12D (ΔTmD, ° C.)? I mean this compound: `C#Cc1c(F)ccc2cc(O)cc(-c3c(F)c4nc(OC[C@@]56CC[C@@H](COC)N5CC(=C)C6)nc(N5C[C@H]6CC[C@@H](C5)N6)c4c4cn(C)nc34)c12`
-- reply 10.64 °C

----------
Target Under Test: GDP-KRAS G12D mutant protein (Homo sapiens, UniProt P01116, G12D)
Construct: purchased Daegu Gyeongbuk Medical Innovation Foundation (DGMIF), made to order
Assay Summary: Differential scanning fluorimetry (DSF) binding affinity to GDP-KRAS G12D mutant protein
Condition Details: DSF thermal shift, 10 μM compound, 4 μg KRAS protein
Experimental: Test Example 1: Measurement of Binding Affinity to KRAS G12D Mutant Protein The binding affinities of the compounds according to one embodiment of the present application to the KRAS G12D mutant protein were evaluated using differential scanning fluorimetry (DSF). […] Protein-compound binding is determined by the difference in the melting temperature (Tm) of the protein in the presence of the compound compared to the Tm in the absence of the compound, expressed as ΔTm. […]
Field: label. Allowed values: YES (GDP-KRAS G12D (ΔTmD, ° C.) < 10 °C) or NO (GDP-KRAS G12D (ΔTmD, ° C.) >= 10 °C).

Line Notation | Target Under Test | Label Value
C#Cc1c(F)ccc2cc(O)cc(-c3cc4nc(OC[C@@]56CCCN5C[C@H](F)C6)nc(N5C[C@H]6CC[C@@H](C5)N6)c4c4cn(C)nc34)c12 | GDP-KRAS G12D mutant protein (Homo sapiens, UniProt P01116, G12D) | NO

-- ask Below 10 °C on GDP-KRAS G12D (ΔTmD, ° C.)? Entry `C#Cc1c(F)ccc2cc(N)cc(-c3cc4nc(OC[C@@]56CCCN5C/C(=C\F)C6)nc(N5[C@@H]6CC[C@H]5CNC6)c4n4ccnc34)c12`
-- reply YES

-- ask Quick check: does `C#Cc1c(F)ccc2cc(O)cc(-c3c(F)c4nc(OCC5(CN6CCC7(CC6)CC7(F)F)CC5)nc(N5C[C@H]6CC[C@@H](C5)N6)c4c4cc(C)oc34)c12` have GDP-KRAS G12D (ΔTmD, ° C.) under 10 °C?
-- reply NO

-- ask Dear reviewer, please state whether `C#Cc1c(F)ccc2cc(O)cc(-c3c(F)c4nc(OC[C@@]56CCCN5C[C@H](F)C6)nc(N5CC6CCC(C5)N6)c4c4cc(C)oc34)c12` has GDP-KRAS G12D (ΔTmD, ° C.) strictly beneath 10 °C.
-- reply NO

----------
Known GppNHp-KRAS G12D (ΔTmD, ° C.) of a selection of compounds
Target Under Test: GppNHp-KRAS G12D mutant protein (Homo sapiens, UniProt P01116, G12D)
Construct: purchased Daegu Gyeongbuk Medical Innovation Foundation (DGMIF), made to order
Assay Summary: Differential scanning fluorimetry (DSF) binding affinity to GppNHp-KRAS G12D mutant protein
Condition Details: DSF thermal shift, 10 μM compound, 4 μg KRAS protein, 50 mM HEPES (pH 7.5)
Dear colleague, please send the value followed by its unit.

Consider the following illustrative entries.
Line Notation | Target Under Test | GppNHp-KRAS G12D (ΔTmD, ° C.)
CCc1c(F)ccc2cc(O)cc(-c3cc4nc(OC[C@@]56CCCN5C[C@H](F)C6)nc(NCC5(N(C)C)CCC5)c4n4ccnc34)c12 | GppNHp-KRAS G12D mutant protein (Homo sapiens, UniProt P01116, G12D) | 0.57 °C
Cc1cc2c(o1)c(-c1nc(N)cc(C)c1C(F)(F)F)c(F)c1nc(OC[C@@]34CCCN3C[C@H](F)C4)nc(N3C[C@H]4CC[C@@H](C3)N4)c12 | GppNHp-KRAS G12D mutant protein (Homo sapiens, UniProt P01116, G12D) | 1.61 °C

-- ask Could you tell me which GppNHp-KRAS G12D (ΔTmD, ° C.) is on file for `C#Cc1c(F)ccc2cc(O)cc(-c3cc4nc(OC[C@]56CCCN5CC(=C)C6)nc(N5[C@@H]6CC[C@H]5CNC6)c4n4ccnc34)c12` ?
-- reply 4.72 °C

-- ask Quick one: GppNHp-KRAS G12D (ΔTmD, ° C.) for `Cn1cc2c(n1)c(-c1cc(O)cc3ccccc13)cc1nc(OC[C@@]34CCCN3C[C@H](F)C4)nc(N3C[C@H]4CC[C@@H](C3)N4)c12` ?
-- reply 1.90 °C

-- ask Look at this compound and give its reported GppNHp-KRAS G12D (ΔTmD, ° C.). `C#Cc1c(F)ccc2cc(O)cc(-c3c(F)c4nc(OC[C@]56CC(=C)CN5C[C@@H](F)C6)nc(N5C[C@H]6CC[C@@H](C5)N6)c4c4cc(C)oc34)c12`
-- reply 8.60 °C

-- ask For the compound `C#Cc1c(F)ccc2cc(O)cc(-c3c(F)c4nc(OC[C@@]56CCCN5C[C@H](F)C6)nc(N5[C@@H]6CC[C@H]5CNC6)c4c4cn(C)nc34)c12` , what GppNHp-KRAS G12D (ΔTmD, ° C.) is on record?
-- reply 11.59 °C

-- ask Record request: GppNHp-KRAS G12D (ΔTmD, ° C.) value, item `C#Cc1c(F)ccc2cccc(-c3cc4nc(OC[C@@]56CCCN5C/C(=C\F)C6)nc(N5[C@@H]6CC[C@H]5CNC6)c4n4ccnc34)c12`
-- reply 1.02 °C
